All figures here come from the supplement of paper PMC12669032.

Tested on: Clostridium difficile
Test: growth AUC relative to DMSO control (median of replicates) (fraction); higher = more growth (less inhibition), active = hit call of the paper
Settings: 20 µM; 24 h
Quantity measured: growth AUC
Could you respond with only the numeric value?

QUERY: Report value: growth AUC, system: Clostridium difficile, compound: CC(C)OC(=O)Nc1ccccc1
RESULT: 1.05

QUERY: Provide growth AUC, recorded with Clostridium difficile, of COCC(=O)N(c1c(C)cccc1C)[C@H](C)C(=O)OC
RESULT: 1.02

QUERY: Report the value of growth AUC obtained on Clostridium difficile for OC(Cc1ccccc1Cl)(Cn1cncn1)C1(Cl)CC1 (configuration not stated) .
RESULT: 0.958

QUERY: Fetch value of growth AUC on Clostridium difficile for CNC(=O)Oc1ccccc1OC(C)C .
RESULT: 0.986

QUERY: GET growth AUC where system = Clostridium difficile and item = O=C1C[C@@H]2OCC=C3CN4CC[C@]56c7ccccc7N1[C@H]5[C@H]2[C@H]3C[C@H]46
RESULT: 0.972

QUERY: Under Clostridium difficile: report growth AUC of CC(Oc1ccc(Cl)cc1Cl)C(=O)O (configuration not stated) .
RESULT: 1.01

QUERY: Print Clostridium difficile growth AUC for C=CCNC(=O)c1c([Si](C)(C)C)sc(C)c1C .
RESULT: 0.968

QUERY: Look up and report growth AUC, with Clostridium difficile as system, for CCc1ccc(C(=O)NN(C(=O)c2cc(C)cc(C)c2)C(C)(C)C)cc1
RESULT: 0.965

QUERY: Return reported growth AUC for target or system Clostridium difficile, item O=C(O)c1c(Cl)ccc2cc(Cl)cnc12 .
RESULT: 0.959

QUERY: Report value: growth AUC, system: Clostridium difficile, compound: COc1nc(C)nc(NC(=O)NS(=O)(=O)c2ccccc2CCC(F)(F)F)n1
RESULT: 0.992

QUERY: Please respond with reported growth AUC (system Clostridium difficile) for CCNc1nc(Cl)nc(NCC)n1 .
RESULT: 1.01

QUERY: // fetch growth AUC; item: O=C(O)C1(O)c2ccccc2-c2ccc(Cl)cc21 (configuration not stated) ; system: Clostridium difficile
RESULT: 0.993

QUERY: Provide growth AUC, system Clostridium difficile, entry Cc1cc(C)c(C2=C(OC(=O)CC(C)(C)C)C3(CCCC3)OC2=O)c(C)c1
RESULT: 0.98

QUERY: GET growth AUC | system: Clostridium difficile | item: COP(=O)(OC)Oc1ccc([N+](=O)[O-])cc1
RESULT: 1.04

QUERY: Answer with growth AUC of ClC1C(Cl)C(Cl)C(Cl)C(Cl)C1Cl (mixture of isomers) measured for Clostridium difficile.
RESULT: 0.982

QUERY: Quote growth AUC with test system Clostridium difficile for COC(=O)/C(C)=C/OP(=S)(OC)OC
RESULT: 0.984

QUERY: Under Clostridium difficile, report growth AUC for CCOCn1c(-c2ccc(Cl)cc2)c(C#N)c(Br)c1C(F)(F)F
RESULT: 0.816

QUERY: For Clostridium difficile, give growth AUC of the listed compound: COP(=O)(OC)O/C(=C\Cl)c1ccc(Cl)cc1Cl
RESULT: 0.97

QUERY: Report growth AUC on Clostridium difficile for this entry: CCCCCCCCCc1ccc(O)cc1
RESULT: 1.03

QUERY: Would you please give the reported growth AUC of O=[N+]([O-])c1ccc(O)c([N+](=O)[O-])c1 with Clostridium difficile?
RESULT: 0.973

QUERY: Give the observed growth AUC of CCC(C)(C)c1ccc(O)cc1 for Clostridium difficile.
RESULT: 1.06

QUERY: GET growth AUC | system: Clostridium difficile | item: O=S1(=O)OCC2C(CO1)C1(Cl)C(Cl)=C(Cl)C2(Cl)C1(Cl)Cl (configuration not stated)
RESULT: 1

QUERY: Report growth AUC on Clostridium difficile for this entry: Oc1cc(Cl)c(Cl)cc1Cl
RESULT: 0.929

QUERY: Give reported growth AUC for O=C(Nc1ccccc1)Nc1ccnc(Cl)c1 (Clostridium difficile)
RESULT: 0.941

QUERY: Recall the reported growth AUC of CNC(=O)Oc1cccc(N=CN(C)C)c1.Cl on Clostridium difficile and write it down.
RESULT: 1.02

QUERY: Give reported growth AUC for CCOc1cc(OP(=S)(OC)OC)nc(CC)n1 (Clostridium difficile)
RESULT: 0.997

QUERY: Quote Clostridium difficile growth AUC for entry CC(C)C1(C)N=C(c2ncccc2C(=O)O)NC1=O (configuration not stated) .
RESULT: 0.991

QUERY: Find the measured growth AUC of CC(=NCc1ccc(Cl)nc1)NC#N with Clostridium difficile as test system.
RESULT: 1.03

QUERY: Please respond with reported growth AUC (system Clostridium difficile) for O=[N+]([O-])NC1=NCOCN1Cc1cnc(Cl)s1 .
RESULT: 0.999

QUERY: Please respond with reported growth AUC (system Clostridium difficile) for CCCC1COC(Cn2cncn2)(c2ccc(Cl)cc2Cl)O1 (configuration not stated) .
RESULT: 0.956

QUERY: Supply growth AUC measured with Clostridium difficile for CNC(=O)Oc1cc(C)c(S(C)(=O)=O)c(C)c1 .
RESULT: 0.998

QUERY: // fetch growth AUC for CCOP(=S)(OCC)SCn1c(=O)oc2cc(Cl)ccc21 ; system: Clostridium difficile
RESULT: 0.978
